Target: Jak2 (UniProt O60674)
Sequence (O60674 whole entry, looked up): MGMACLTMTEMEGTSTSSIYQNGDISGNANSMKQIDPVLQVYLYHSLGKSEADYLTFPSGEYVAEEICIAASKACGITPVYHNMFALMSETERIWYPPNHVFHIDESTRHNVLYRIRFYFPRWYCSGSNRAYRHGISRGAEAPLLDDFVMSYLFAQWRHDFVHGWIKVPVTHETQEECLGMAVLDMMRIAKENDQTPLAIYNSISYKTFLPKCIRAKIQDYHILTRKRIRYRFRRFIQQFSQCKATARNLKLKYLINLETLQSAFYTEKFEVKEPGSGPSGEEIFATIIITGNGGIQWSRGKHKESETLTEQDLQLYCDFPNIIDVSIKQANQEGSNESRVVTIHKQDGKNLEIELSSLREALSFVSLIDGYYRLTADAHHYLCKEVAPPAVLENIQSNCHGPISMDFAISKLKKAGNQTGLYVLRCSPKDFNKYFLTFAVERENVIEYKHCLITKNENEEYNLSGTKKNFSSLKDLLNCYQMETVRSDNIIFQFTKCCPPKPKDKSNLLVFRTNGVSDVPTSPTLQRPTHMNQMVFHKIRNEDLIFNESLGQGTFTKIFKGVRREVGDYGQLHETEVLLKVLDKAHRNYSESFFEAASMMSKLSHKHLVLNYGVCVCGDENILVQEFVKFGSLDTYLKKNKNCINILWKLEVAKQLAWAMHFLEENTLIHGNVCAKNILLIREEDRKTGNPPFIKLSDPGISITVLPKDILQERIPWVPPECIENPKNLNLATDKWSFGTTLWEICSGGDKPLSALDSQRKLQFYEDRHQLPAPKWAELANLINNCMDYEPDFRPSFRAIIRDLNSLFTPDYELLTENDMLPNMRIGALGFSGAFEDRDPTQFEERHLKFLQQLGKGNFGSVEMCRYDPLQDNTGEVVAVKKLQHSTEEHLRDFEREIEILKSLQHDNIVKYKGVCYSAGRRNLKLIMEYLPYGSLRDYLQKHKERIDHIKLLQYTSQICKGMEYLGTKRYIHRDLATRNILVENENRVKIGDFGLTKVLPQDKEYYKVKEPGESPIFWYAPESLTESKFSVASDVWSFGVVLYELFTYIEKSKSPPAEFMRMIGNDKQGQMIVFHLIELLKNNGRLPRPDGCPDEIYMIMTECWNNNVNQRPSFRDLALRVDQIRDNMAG
Assay: phosphorylation enrichment, bacterial display (enrichment ratio); higher = better substrate or ligand; peptides without Tyr show the background
observed.property: phosphorylation enrichment
Give bare numbers.

Please review the entries below; each comes with its answer.
>>> measured_number("PKGIGYGQGAG [CSRP3_Y73]")
0.474
>>> measured_number("CSSGGYEPRGR [FUS_Y239_R234C]")
0.594
>>> measured_number("YMKEPYIQSRF [HIPK4_Y175_V171M]")
0.855
>>> measured_number("LTMAPYSSVSV [FAM81A_Y24_L29V]")
0.933
>>> measured_number("IVRSLYEDLED [VHL_Y185]")
1.01
>>> measured_number("GKSFIYAAFHA [KCNT1_Y563_T562I]")
1.32
>>> measured_number("CTNIHYNYMCN [TP53_Y234_T231N]")
0.799
>>> measured_number("PFRFIYMAVQH [PTPN11_Y515_Q510P_YF]")
1.18
>>> measured_number("SGIYQYIIAKF [FOXL2_Y83]")
0.852
>>> measured_number("PGIRMYQVQFN [LRFN1_Y454_YF]")
0.789

Here are 8 sequences. What values of phosphorylation enrichment were reported for them?
1. ARSHIYTFSSC [MEFV_Y741_A744S]
2. PKEQKYSFLQN [GH1_Y68]
3. LRRREYQRQDF [PRKRIP1_Y90_YF]
4. CKRQFYLFKGK [RSPO4_Y112_YF]
5. FRPPFYHRNCM [HGD_Y334_YF]
6. NGTVTYAIIAG [CDH23_Y1672_V1675I]
7. LLQEWYMIISR [HUWE1_Y4066_R4063Q]
8. ALTRSYIREKV [CYP2C8_Y243]

OUT:
1. 0.714
2. 0.688
3. 0.836
4. 0.745
5. 0.761
6. 0.989
7. 3.08
8. 0.445

Okay, here is my list. What is phosphorylation enrichment for each of these?
1. SSMNDYNPLEK [MYOC_Y479_I477N]
2. QRALLYEDALY [UNC13D_Y56]
3. NLVSEYQQFQD [TUBB3_Y422_D417N_YF]
4. GKMSSYAFFVQ [HMGB1_Y16]
5. ARTNEYKIIRT [INA_Y87]
6. VEDHDYEGGIG [TKT_Y564_Y563D]

OUT:
[1.07, 1.08, 1.08, 1.01, 0.571, 1.24]

Record phosphorylation enrichment per entry; entries follow.
1. EQKKFYNAVKK [SCN5A_Y1495_M1498V_YF]
2. ENRKFYKDLKE [PURA_Y156_M157K_YF]
3. MSRDIYSTDFF [NTRK1_Y676_YF]
4. VEGIGYDFIPT [CBS_Y308]
5. KDHPDYKFQAR [SOX10_Y171_P175A_YF]
6. CEHFSYYGMKA [SLC15A2_Y60_R57H]
7. TLLERYGMIEI [ACSF3_Y355_T358I]

OUT:
1. 1.06
2. 0.536
3. 0.726
4. 0.827
5. 0.559
6. 5.02
7. 1.02

Please report phosphorylation enrichment for every entry that follows.
1. CTTIDYNYMCN [TP53_Y234_H233D]
2. RHFVFYFSFLL [PTEN_Y177_R173H_YF]
3. IIQRAYRGHLL [SCN1A_Y1926_R1928G]
4. GRLVEYDIDEV [SMS_Y134]
5. VFGEEYEEQPR [ZMYM2_Y1033]
6. KVVQEYERVII [NPHS2_Y131]
7. VTRDEYPSNPM [CEMIP2_Y1015_I1010V]

OUT:
0.838
0.607
0.555
1.45
1.23
0.801
0.696

###

Exercise: state measured phosphorylation enrichment for each of the sequences provided.
System: AncSZ
Experiment: phosphorylation enrichment, bacterial display (enrichment ratio); higher = better substrate or ligand; peptides without Tyr show the background
Give bare numbers.

Use these answered entries as a reference point.
>>> measured_number("MAFDRYVAVCA [OR52J3_Y125]")
0.845
>>> measured_number("GADDSYFTARS [ZAP70_Y492_YF]")
0.657
>>> measured_number("RGRSTCYWPRP [GAGE12J_Y9_Y9C]")
1.06

Lab note: next sequence to report on.
IN: Look up phosphorylation enrichment: CTTIHHNFMCN [TP53_Y234_Y234H_YF]
OUT: 0.713

###

Hi there, I'd appreciate the recorded phosphorylation enrichment for every entry that follows.
Biological target: MERTK (UniProt Q12866)
Sequence (Q12866 whole entry, looked up): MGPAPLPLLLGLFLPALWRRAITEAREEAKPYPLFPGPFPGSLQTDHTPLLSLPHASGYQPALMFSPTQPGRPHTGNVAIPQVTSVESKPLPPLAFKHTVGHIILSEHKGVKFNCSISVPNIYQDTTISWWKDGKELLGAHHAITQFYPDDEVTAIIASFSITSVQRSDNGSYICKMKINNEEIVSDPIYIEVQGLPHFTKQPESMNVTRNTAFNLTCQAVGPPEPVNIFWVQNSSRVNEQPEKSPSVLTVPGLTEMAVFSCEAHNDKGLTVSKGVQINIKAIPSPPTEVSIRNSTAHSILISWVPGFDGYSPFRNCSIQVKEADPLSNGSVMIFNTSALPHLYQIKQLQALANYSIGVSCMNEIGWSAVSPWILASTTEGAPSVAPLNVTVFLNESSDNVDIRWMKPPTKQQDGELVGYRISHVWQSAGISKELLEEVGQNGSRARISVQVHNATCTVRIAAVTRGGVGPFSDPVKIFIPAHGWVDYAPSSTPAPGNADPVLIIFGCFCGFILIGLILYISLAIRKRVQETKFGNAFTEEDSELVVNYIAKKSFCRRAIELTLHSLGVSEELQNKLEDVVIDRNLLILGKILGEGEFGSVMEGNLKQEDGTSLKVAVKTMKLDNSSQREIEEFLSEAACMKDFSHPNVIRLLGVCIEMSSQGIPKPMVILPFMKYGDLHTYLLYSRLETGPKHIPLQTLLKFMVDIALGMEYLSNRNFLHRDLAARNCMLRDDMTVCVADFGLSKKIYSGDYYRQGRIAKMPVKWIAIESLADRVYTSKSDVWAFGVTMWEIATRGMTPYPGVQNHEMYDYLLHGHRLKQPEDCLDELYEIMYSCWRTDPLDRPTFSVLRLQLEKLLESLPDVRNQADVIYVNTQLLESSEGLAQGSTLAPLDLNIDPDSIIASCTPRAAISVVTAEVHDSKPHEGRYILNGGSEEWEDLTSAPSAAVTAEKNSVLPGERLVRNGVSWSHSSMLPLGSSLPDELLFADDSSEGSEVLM
Assay: phosphorylation enrichment, bacterial display (enrichment ratio); higher = better substrate or ligand; peptides without Tyr show the background

>>> result("LIEQAYDNPHE [PRPF8_Y871]")
0.43
>>> result("SVTCTCSPALN [TP53_Y126_Y126C]")
0.395
>>> result("IEDPYYGNDFD [ACP1_Y133_S137F]")
0.513
>>> result("GIVEDYRPPLY [ACVRL1_Y421_F425L]")
0.393
>>> result("EQLRAYLEGTC [HLA-C_Y183]")
0.403
>>> result("PSALGYSPSLH [LLGL2_Y40_R45H]")
0.621
>>> result("PKAWNYELPAT [PROM1_Y34]")
0.59
>>> result("YQRITYHNWRH [PDE6B_Y556_R552Q]")
0.482
>>> result("LFEDRYLLGTS [ASS1_Y87_YF]")
0.863
>>> result("GASRRYGSGVS [NEU1_Y242_W240R]")
0.509

// each sequence listed below needs its phosphorylation enrichment
1. FRPPFYHRNCM [HGD_Y334_YF]
2. LFSLGYHQSLW [GANAB_Y396_R400L]
3. EKNANYKEGTF [CLRN1_Y171_I168N_YF]
4. NTGNYYDLYGG [PTPN11_Y63_D61N]
5. CTTIHYDFMCN [TP53_Y234_N235D_YF]
6. ERDFTYDELLN [EIF2S2_Y176_E177D_YF]

OUT:
0.426
0.535
0.425
9.28
0.49
0.537

Need phosphorylation enrichment for each of these sequences.
1. EHFSFYGMKAV [SLC15A2_Y61_R57H_YF]
2. ARSHIYTFSSC [MEFV_Y741_A744S]
3. CEHRGSLFLAI [TEK_Y897_Y897S_YF]

OUT:
1. 0.417
2. 0.62
3. 0.422

###

Molecular target: c-Src SH2;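 further: peptide library displayed on the E. coli surface as eCPX fusions, selected cells deep-sequenced, score is each peptide's frequency after selection divided by its frequency in the input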
Experiment: SH2 binding enrichment of the phosphorylated peptide, bacterial display (enrichment ratio); higher = better substrate or ligand; peptides without Tyr show the background
Task for the reader: assign each of the following sequences its reported SH2 binding enrichment.
One number for each entry.

# count of solved cases: 5
>>> measured_number("KDKLPYPYDDP [GPX2_Y125]")
1.67
>>> measured_number("PLFRKYWPNHI [GREB1L_Y1560_YF]")
0.461
>>> measured_number("QLQVFYATRDQ [MIPEP_Y579_L582R]")
0.659
>>> measured_number("PSQRHYVYYYS [PTEN_Y174_R173H]")
2.03
>>> measured_number("YETVKYFNNER [ABCB7_Y345]")
9.64

Consider the following items and state reported SH2 binding enrichment for each.
1. AVAFVYFKSIG [ADGRL4_Y301_YF]
2. GADDSYFTARS [ZAP70_Y492_YF]
3. VDTFWYKFLKP [EPM2A_Y86_R91P]
4. RRGTRYMFSRP [RPL21_Y13]
5. YLNSSYINIST [IL23R_Y178_T175N]
6. LHNLFYQLEAE [PKP2_Y616_S615F]
7. GEYYRYLAEVA [YWHAG_Y133_D129E]

OUT:
0.628
0.402
0.388
0.483
4.78
0.725
0.669

State recorded SH2 binding enrichment for all listed sequences.
1. PGIRMYQVQFN [LRFN1_Y454_YF]
2. GKSFTYAAFHA [KCNT1_Y563]
3. MPLDQYSPSFP [FGFR1_Y776]

OUT:
1. 0.997
2. 0.41
3. 0.518

# per-item lookup of SH2 binding enrichment; items listed below
1. YSQNIYIQNRN [PKP2_Y631]
2. LKLKAYRFSIS [LCT_Y974_V971L]
3. KLVRLYAVVTR [LYN_Y306]
4. ASGKYYAMKIL [AKT3_Y174]
5. ELAVNYQEQAS [SLC9A9_Y591_I589V]
6. VFAPDYIAGVS [NOB1_Y366]

OUT:
[0.691, 0.502, 0.869, 1.43, 0.563, 0.544]

I'm hoping you can list SH2 binding enrichment for every sequence here, please.
1. GRGMPYGGRGD [TGM1_Y312_R307G]
2. PKFHSYVSLPF [PLXNA2_Y293]
3. KDQPDYKYQPR [SOX9_Y172_H169Q]
4. IIQRAYRGHLL [SCN1A_Y1926_R1928G]

OUT:
[0.513, 2.17, 0.493, 0.5]
